target: E3 ubiquitin-protein ligase Mdm2 (Homo sapiens, UniProt Q00987); assay: Binding affinity to human MDM2 assessed as inhibition of interaction with p53 by fluorescence polarization assay
Sequence (Q00987 whole entry): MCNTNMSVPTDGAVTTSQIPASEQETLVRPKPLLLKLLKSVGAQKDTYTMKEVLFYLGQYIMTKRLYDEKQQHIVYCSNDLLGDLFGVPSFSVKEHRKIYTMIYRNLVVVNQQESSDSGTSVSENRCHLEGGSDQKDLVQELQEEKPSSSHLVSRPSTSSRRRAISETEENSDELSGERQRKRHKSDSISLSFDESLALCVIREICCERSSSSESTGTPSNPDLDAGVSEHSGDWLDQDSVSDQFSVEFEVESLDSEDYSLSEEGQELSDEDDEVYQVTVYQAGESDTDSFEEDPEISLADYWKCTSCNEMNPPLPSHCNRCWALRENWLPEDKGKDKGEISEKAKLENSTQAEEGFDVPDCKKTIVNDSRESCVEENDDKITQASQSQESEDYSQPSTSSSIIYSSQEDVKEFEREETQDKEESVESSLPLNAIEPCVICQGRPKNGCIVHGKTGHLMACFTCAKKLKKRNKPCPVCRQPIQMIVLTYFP
pIC50: −log10 of the molar value.
Rule: true (1) for pIC50 not less than 6, false (0) for anything less.

# count of solved cases: 6
{"STRUCTURE": "CCC[C@H]1N(C(=O)c2cnccc2C(F)(F)F)CCC[C@@]1(Oc1ccc(C(F)(F)F)cc1)C(=O)N1CCC(Oc2ccncc2)CC1", "ASSIGNED_CLASS": "true (1)"}
{"STRUCTURE": "CCC[C@H]1N(C(=O)c2cnccc2C(F)(F)F)CCC[C@@]1(Oc1ccc(C(F)(F)F)cc1)C(=O)N1CCC(Oc2cccnc2)CC1", "ASSIGNED_CLASS": "true (1)"}
{"STRUCTURE": "CCC[C@H]1N(C(=O)c2cnccc2C(F)(F)F)CCC[C@@]1(Oc1ccc(C(F)(F)F)cc1)C(=O)N1CCC(Oc2cccc(C#N)c2)CC1", "ASSIGNED_CLASS": "true (1)"}
{"STRUCTURE": "CCC[C@H]1N(C(=O)c2cnccc2C(F)(F)F)CCC[C@@]1(Oc1ccc(C(F)(F)F)cc1)C(=O)N1CCC(Oc2ccc(Cl)cc2)CC1", "ASSIGNED_CLASS": "false (0)"}
{"STRUCTURE": "CCC[C@H]1N(C(=O)c2cnccc2C(F)(F)F)CCC[C@@]1(Oc1ccc(C(F)(F)F)cc1)C(=O)N1CCC(Sc2ccccc2)CC1", "ASSIGNED_CLASS": "false (0)"}
{"STRUCTURE": "CCC[C@H]1N(C(=O)c2cnccc2C(F)(F)F)CCC[C@@]1(Oc1ccc(C(F)(F)F)cc1)C(=O)N1CCC(Oc2cccc(C)n2)CC1", "ASSIGNED_CLASS": "false (0)"}

## Input Test whether the compound "CCC[C@H]1N(C(=O)c2cnccc2C(F)(F)F)CCC[C@@]1(Oc1ccc(C(F)(F)F)cc1)C(=O)N1CCC(Oc2cccc(C(=O)OC)n2)CC1" records pIC50 of 6 or higher.
## Output true (1)

## Input Confirm if pIC50 reported for the compound "CCC[C@H]1N(C(=O)c2cnccc2C(F)(F)F)CCC[C@@]1(Oc1ccc(C(F)(F)F)cc1)C(=O)N1CCC(Oc2ncccc2C(N)=O)CC1" is 6 or above.
## Output false (0)

## Input Could you tell me if the measured pIC50 of "CCC[C@H]1N(C(=O)c2cnccc2C(F)(F)F)CCC[C@@]1(Oc1ccc(C(F)(F)F)cc1)C(=O)N1CCC(Oc2cccc(Cl)n2)CC1" reaches 6 or more?
## Output false (0)
